Target: dsDNAhAT (double-stranded DNA hairpin with the consensus sequence ATTA)
Experiment: Fluorescence titration with hairpin dsDNAhAT, binding affinity by DynaFit
Settings: 1 µM dye in 10 mM Tris pH 7.6 and 50 mM KCI, 20°C, emission at 647 nm, 1:1 binding model, read-out: binding affinity (KD, apparent dissociation constant)
Reported Metric: pKd
Give bare numbers, as −log10 of the molar value.

Enquiry: Report value: pKd, system: dsDNAhAT (double-stranded DNA hairpin with the consensus sequence ATTA), molecule: `CC[n+]1ccc(/C=C/C=C2\Sc3ccccc3N2CCCCCCn2cc(CN)nn2)c2ccccc21.[I-]`
Return: 6.94

---

Target: dsDNAhGC (double-stranded DNA hairpin with the consensus sequence GGCCC)
Assay: Fluorescence titration with hairpin dsDNAhGC, binding affinity by DynaFit
Settings: 1 µM dye in 10 mM Tris pH 7.6 and 50 mM KCI, 20°C, emission at 650 nm, 1:1 binding model, read-out: binding affinity (KD, apparent dissociation constant)
Description: Fluorescence measurements and tritations were performed on a Jasco FP-6500 spectrofluorometer equipped with a Thermo Haake WKL 26 water recirculator at 20°C. Unless otherwise noted, a 1400 µL fluorescence cuvette of HellmaAnalytics (104F-QS) was used and the measurements were performed with the following settings: increment: 1.0 nm; integration time: 0.2 s; speed: 500 nm/min; sensitivity: medium; excitation slit width: 3 nm; emission slit width: 3 nm; excitation wavelength 610 nm. […]
Reported Metric: pKd
Give bare numbers, as −log10 of the molar value.

Enquiry: Fill in pKd for record `CC[n+]1ccc(/C=C/C=C2\Sc3ccccc3N2CCCCCCn2cc(CN)nn2)c2ccccc21.[I-]`
Return: 6.98
